# TGI values compiled below
# System: SK-MEL-5 melanoma
# Method Summary: NCI tumour cell line growth inhibition, 48 h

* Cc1cccc(NC(=O)C(=O)C2C(=O)NC(=O)NC2=O)c1C | > 100 µM
* COC(=O)c1ccc(-c2nc(C#N)c(N)o2)cc1 | > 100 µM
* Cc1ccc(S(=O)(=O)n2cncc2CO)cc1 | > 100 µM

Query block: For the molecule C=CN1C(=O)OC(c2ccccc2)C1c1ccccc1 (stereo unspecified) , give its measured TGI value.
Result block: > 100 µM

Query block: Read the entry CC(CN=C(CC(=O)c1ccc(Br)cc1)c1ccccc1)N=C(CC(=O)c1ccc(Br)cc1)c1ccccc1 (stereo unspecified) and write its reported TGI.
Result block: 8.9 µM

Query block: Answer with reported TGI of "c1ccc2c(CNCCCCCCNCc3cccc4ccccc34)cccc2c1"
Result block: 19.9 µM

###

# System: SK-MEL-5 melanoma
# Method Summary: NCI tumour cell line growth inhibition, 48 h; in the data active = GI50 below about 0.43 µM; inactive = the rest
Your answer must be one of the following: y (active), n (inactive)

Example entries begin here.
* Cc1c[nH]c2c1C13CC1CN(C(=O)c1cc4cc(NC(=O)c5cc6ccccc6o5)ccc4[nH]1)C3=CC2=O (stereo not given) | n
* S=c1nc(-c2ccccc2)oc(=NC2CCCCC2)n1C1CCCCC1 | n
* COc1ccc(-c2ccc(/C=C/C(=O)NO)cc2)cc1 | n
* O=C(/C=C/c1ccc(C(F)(F)F)cc1)c1ccc(Nc2nc(NCCO)nc(NCCO)n2)cc1 | n

Turning to the following compound.
Query block: Assay result, entry COc1cc(C)c(C(=O)O[C@H]2[C@H](O[C@H]3[C@@H](O)COC(O[C@H]4C[C@H]5[C@@H]6CC=C7C[C@@H](O)CC[C@]7(C)[C@H]6CC[C@]5(C)[C@H]4[C@H](C)C(=O)CCC(C)C)[C@@H]3OC(C)=O)OC[C@@H](O)[C@@H]2O)c(C)c1 (stereo not given in full) — outcome?
Result block: y

###

# Tested on: UACC-62 melanoma
# Method Summary: NCI tumour cell line growth inhibition, 48 h
Measurement Type: GI50

Take a look at these entries with their results.
* CC[C@@]1(O)C(=O)NCc2c1cc1n(c2=O)Cc2cc3ccccc3nc2-1 | 1.87 µM
* O=C1c2[nH]cc(CN3CCNCC3)c2C(=O)c2c1c(O)c1ccccc1c2O | 1.71 µM
* Cn1nc(C(F)(F)F)c(-c2ccc(Cl)c(C(F)(F)F)c2)c1-c1ccc(OCc2ccc(Cl)cc2)cc1O | 1.58 µM

Query block: Recall and state the measured GI50 for CC(CN=C(CC(=O)c1ccc(Br)cc1)c1ccccc1)N=C(CC(=O)c1ccc(Br)cc1)c1ccccc1 (stereo not given) .
Result block: 32 µM

Query block: Specify GI50 for "Cc1ccc2c(c1)C(=O)c1c-2n(CCCN)c(=O)c2cc([N+](=O)[O-])ccc12" and stop.
Result block: 0.522 µM

###

# System: HCC-2998 colon
# Method Summary: NCI tumour cell line growth inhibition, 48 h
Measurement Type: TGI (µM)
Report the figure in µM without appending any unit label.

* COc1ccc2c(c1)CCC1C2CC[C@@]2(C)C1CC[C@@]2(O)CNC(=O)/C=C/c1ccc(O)c(OC)c1 (stereo not given in full) | 33.7

Query block: Consider the compound "C=C(CN1CCN(c2ccccc2OC)CC1)c1ccc(C(=O)Nc2ccccc2N)cc1" tested on HCC-2998 colon; state its TGI.
Result block: 0.452

###

# Test system: SW-620 colon
# Method Summary: NCI tumour cell line growth inhibition, 48 h
Measurement Type: TGI

- O=C1C2c3[nH]c4ccccc4c3[C@@H]3CCCCCCCCCCC3C2C(=O)N1c1ccccc1 (some centres undefined): 35.5 µM
- Cl.[Pt].[c-]1ccccc1-c1ccccn1.c1ccc(P(c2ccccc2)C([PH+](c2ccccc2)c2ccccc2)[PH+](c2ccccc2)c2ccccc2)cc1: 8.31 µM
- O=C(c1ccccc1Nc1ccnc(C(F)(F)F)c1)N1CCN(c2cccc(Cl)c2)CC1: > 100 µM

Query block: Specify the recorded TGI for "COc1ccc(C2(c3ccc(OC)cc3)OC(=O)c3cccc4cccc2c34)cc1" , system: SW-620 colon.
Result block: > 100 µM

Query block: Specify the recorded TGI for "C/C(=C\c1ccc(Cl)cc1)C(C)(C)C(=O)O" , system: SW-620 colon.
Result block: > 100 µM

Query block: # return TGI of COc1cc(C2C3=C(CCC3=O)Oc3cc4c(cc32)OCO4)cc(OC)c1OC (centres undefined) (system: SW-620 colon)
Result block: > 100 µM

Query block: Tell me its TGI on SW-620 colon: "CCOC(=O)c1ccc2nc(NC(=O)COC(=O)CSc3nc(C)cc(C)n3)sc2c1"
Result block: > 100 µM

Query block: Recall the reported TGI of "CCN(CC)CCO/N=C1\CC[C@H]2[C@@H]3CC=C4C[C@@H](O)CC[C@]4(C)[C@H]3CC[C@]12C" when tested on SW-620 colon.
Result block: 30.4 µM

Query block: Fetch value of TGI on SW-620 colon for C#CCN1C(=O)/C(=c2\sc3n(c2=O)C2C(NN=3)N(CC)C(=O)N2CC)c2ccccc21 (centres undefined) .
Result block: > 100 µM

###

# System: RXF 393 renal
# Method Summary: NCI tumour cell line growth inhibition, 48 h; in the data active = GI50 below about 0.43 µM; inactive = the rest
Your reply should match one of these outcome classes. yes (1) = active, no (0) = inactive

The following compounds have reported results that may help.
* Nc1ccc(-c2nc3ccc4[nH]ncc4c3c3c2CCCC3)cc1F | yes (1)
* COc1ccc2c(c1)CCC1C2CC[C@@]2(C)C1CC[C@@]2(O)CNC(=O)/C=C/c1ccc(O)c(OC)c1 (some centres undefined) | no (0)
* CCSc1oc(-c2ccccc2)nc1[P+](c1ccccc1)(c1ccccc1)c1ccccc1 | yes (1)

Query block: Test call, this compound: "Nc1ncnc2c1c(C(F)(F)F)cn2[C@@H]1O[C@H](CO)[C@@H](O)[C@H]1O"
Result block: yes (1)

Query block: I would be grateful if you could indicate the recorded call for "C/C1=C\[C@H](C)C[C@H](C)OC(=O)C[C@H](c2ccc(O)cc2)NC(=O)[C@@H](Cc2c(Br)[nH]c3ccccc23)N(C)C(=O)[C@H](C)NC(=O)[C@@H](C)C1" .
Result block: yes (1)

Query block: Please let me know the test result on file for COC(=O)C[CH](C(=O)OC)[Ge]([CH3])([CH3])[S]c1ccccc1 (centres undefined) .
Result block: no (0)

Query block: Can you look up the reported call for "Cn1c2ccccc2c(=Nc2ccccc2)c2c3ccccc3[nH]c21" for me?
Result block: no (0)

Query block: Any idea what this test logged for "CC[C@@]1(O)C(=O)NCc2c1cc1n(c2=O)Cc2cc3ccccc3nc2-1" ?
Result block: no (0)

Query block: Hi, sorry to bother you, what did the test record for "O=C(c1ccccc1Nc1ccnc(C(F)(F)F)c1)N1CCN(c2cccc(Cl)c2)CC1" ?
Result block: no (0)

###

# Test system: U251 CNS
# Method Summary: NCI tumour cell line growth inhibition, 48 h
Categories are assigned from the measured TGI using these intervals: low = under 4 µM, intermediate = from 4 µM up to 30 µM, high = 30 µM and over

Study these solved cases before continuing.
* Cc1cnc[nH]c1=O | high
* O=S1(=O)NNC(=NCc2ccc(Cl)cc2)c2ccccc21 | high
* C=CCC(CNC(=O)OCc1ccccc1)O[Si](C)(C)C(C)(C)C (stereo not drawn) | high
* O=C(N/N=C(/c1nc2ccc(Cl)cc2[nH]c1=O)C(O)c1ccc(Cl)cc1Cl)c1ccncc1 (stereo not drawn) | high
* Cn1c2ccccc2c(=Nc2ccccc2)c2c3ccccc3[nH]c21 | low
* CCC1(CC)C(=O)CC[C@@]2(C)C1=CC[C@H]1[C@@H]3CC[C@H](O)[C@@]3(C)CC[C@@H]12 | high
* Cc1cc(C)c(S(=O)(=O)N(CCCCN)OCCCN)c(C)c1 | intermediate
* CC(=O)N(CN1C(=O)CCC1C(=O)O)c1ccccc1 (stereo not drawn) | high

Query block: State the class of the compound shown: "COc1ccc(-c2ccc(/C=C/C(=O)NO)cc2)cc1"
Result block: low

Query block: Assign a category based on measured TGI for NC(Cc1cc(I)c(O)c(I)c1)C(=O)O (stereo not drawn) and give only the class name.
Result block: high

###

# System: OVCAR-4 ovarian
# Method Summary: NCI tumour cell line growth inhibition, 48 h; in the data active means GI50 below about 0.43 µM; inactive means the rest
Log the outcome using a class from active, inactive

Before answering, review these 5 worked examples.
- C=CN1C(=O)OC(c2ccccc2)C1c1ccccc1 (centres undefined): inactive
- CN(C)CCCNc1nn2c(=O)c3ccccc3nc2c2ccccc12: inactive
- CC1(C)N=C(N)N=C(N)N1c1cccc(C#N)c1: inactive
- CC(=O)Oc1ccc(OC(C)=O)c2ccccc12: inactive
- COc1ccc2c(c1)CCC1C2CC[C@@]2(C)C1CC[C@@]2(O)CNC(=O)/C=C/c1ccc(O)c(OC)c1 (some centres undefined): inactive

Query block: Would you mind telling me which call this test gave "CC[C@@]1(O)C(=O)NCc2c1cc1n(c2=O)Cc2cc3ccccc3nc2-1" ?
Result block: inactive

Query block: Lab log entry: "CN(C)c1ccc(/C=C2\C[C@H]3[C@@H]4CC=C5C[C@@H](N6CCCC6)CC[C@]5(C)[C@H]4CC[C@]3(C)[C@H]2O)cc1" — outcome as called in the assay?
Result block: inactive

Query block: Hi, sorry to bother you, what did the test record for "C/C1=C\[C@H](C)C[C@H](C)OC(=O)C[C@H](c2ccc(O)cc2)NC(=O)[C@@H](Cc2c(Br)[nH]c3ccccc23)N(C)C(=O)[C@H](C)NC(=O)[C@@H](C)C1" ?
Result block: active

Query block: Recorded test call requested for "CCCCCCCCCCCCn1c(C)nc2ccccc21"
Result block: inactive
